Data provenance: patent US7498441B2

I'd be grateful if you could share measured Ki for these entries.
- TEST SYSTEM: MCH receptor (Homo sapiens, UniProt Q99705)
- Construct: expressed in transfected cells; host or cells: CHO cells
- Sequence (Q99705 whole entry): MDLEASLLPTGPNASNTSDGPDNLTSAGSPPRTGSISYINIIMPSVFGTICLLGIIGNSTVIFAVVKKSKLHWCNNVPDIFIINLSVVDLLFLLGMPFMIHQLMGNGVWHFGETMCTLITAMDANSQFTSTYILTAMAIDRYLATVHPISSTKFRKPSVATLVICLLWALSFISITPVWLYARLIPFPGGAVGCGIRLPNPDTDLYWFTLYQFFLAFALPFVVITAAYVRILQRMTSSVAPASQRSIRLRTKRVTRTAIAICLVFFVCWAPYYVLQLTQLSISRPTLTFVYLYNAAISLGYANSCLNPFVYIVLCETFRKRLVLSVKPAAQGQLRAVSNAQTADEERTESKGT
- ASSAY PROTOCOL: MCH Receptor Binding Assay ([125I]-MCH, SPA, membranes from CHO cells expressing the MCH receptor)
- RECORDED CONDITIONS: MCH Receptor Activity (Preferred Compounds); dissociation constants; read-out: Ave KiMCH
Answer format: numeric, nM implied, no suffix.

## Task Could you share what Ki was measured for N#Cc1cccc(-c2ccc3c(c2)CCN(CC(=O)Nc2cc(Cl)cc(Cl)c2)C3C2CCN(C3CCCCC3)CC2)c1 (stereo not drawn) [Example 32] , tested on MCH receptor (Homo sapiens, UniProt Q99705)?
## Result 10

## Task Could you share what Ki was measured for O=C(CN1CCc2cc(-c3ccncc3)ccc2C1C1CCN(C2CCCC2)CC1)Nc1cc(Cl)cc(Cl)c1 (stereo not drawn) [Example 12] , tested on MCH receptor (Homo sapiens, UniProt Q99705)?
## Result 24

## Task Could you share what Ki was measured for CN1CCC(C2c3ccc(-c4cccc(C#N)c4)cc3CCN2CC(=O)Nc2cc(Cl)cc(Cl)c2)CC1 (stereo not drawn) [Example 17] , tested on MCH receptor (Homo sapiens, UniProt Q99705)?
## Result 22

## Task Could you share what Ki was measured for N#Cc1cccc(-c2ccc3c(c2)CCN(CC(=O)Nc2cc(Cl)cc(Cl)c2)C3C2CCN(C3CCOCC3)CC2)c1 (stereo not drawn) [Example 24] , tested on MCH receptor (Homo sapiens, UniProt Q99705)?
## Result 6.4

## Task Could you share what Ki was measured for N#Cc1cccc(-c2ccc3c(c2)CCN(CC(=O)Nc2cc(Cl)cc(Cl)c2)C3C2CCN(CC3CC3)CC2)c1 (stereo not drawn) [Example 28] , tested on MCH receptor (Homo sapiens, UniProt Q99705)?
## Result 9.3

## Task Could you share what Ki was measured for N#Cc1cccc(-c2ccc3c(c2)CCN(CC(=O)Nc2cc(Cl)cc(Cl)c2)C3C2CCN(Cc3ccoc3)CC2)c1 (stereo not drawn) [Example 26] , tested on MCH receptor (Homo sapiens, UniProt Q99705)?
## Result 14

## Task Could you share what Ki was measured for O=C(CN1CCc2cc(-c3cccnc3)ccc2C1C1CCN(C2CCCC2)CC1)Nc1cc(Cl)cc(Cl)c1 (stereo not drawn) [Example 16] , tested on MCH receptor (Homo sapiens, UniProt Q99705)?
## Result 23

## Task Could you share what Ki was measured for N#Cc1cccc(-c2ccc3c(c2)CCN(CC(=O)Nc2cc(Cl)cc(Cl)c2)C3C2CCN(C3CCCC3)CC2)c1 (stereo not drawn) [Example 1] , tested on MCH receptor (Homo sapiens, UniProt Q99705)?
## Result 11.2

## Task Could you share what Ki was measured for N#Cc1cccc(-c2ccc3c(c2)CCN(CC(=O)Nc2cc(Cl)cc(Cl)c2)C3C2CCN(Cc3ccccc3)CC2)c1 (stereo not drawn) [Example 19] , tested on MCH receptor (Homo sapiens, UniProt Q99705)?
## Result 23

## Task Could you share what Ki was measured for N#Cc1cccc(-c2ccc3c(c2)CCN(CC(=O)Nc2cc(Cl)cc(Cl)c2)C3C2CCN(C3CCSC3)CC2)c1 (stereo not drawn) [Example 25] , tested on MCH receptor (Homo sapiens, UniProt Q99705)?
## Result 7

## Task Could you share what Ki was measured for N#Cc1cccc(-c2ccc3c(c2)CCN(CC(=O)Nc2cc(Cl)cc(Cl)c2)C3C2CCN(CCCCCO)CC2)c1 (stereo not drawn) [Example 21] , tested on MCH receptor (Homo sapiens, UniProt Q99705)?
## Result 6.8

## Task Could you share what Ki was measured for COc1ccccc1CN1CCC(C2c3ccc(-c4cccc(C#N)c4)cc3CCN2CC(=O)Nc2cc(Cl)cc(Cl)c2)CC1 (stereo not drawn) [Example 27] , tested on MCH receptor (Homo sapiens, UniProt Q99705)?
## Result 16

## Task Could you share what Ki was measured for N#Cc1cccc(-c2ccc3c(c2)CCN(CC(=O)Nc2cc(Cl)cc(Cl)c2)C3C2CCN(C3CCCCCC3)CC2)c1 (stereo not drawn) [Example 22] , tested on MCH receptor (Homo sapiens, UniProt Q99705)?
## Result 10

## Task Could you share what Ki was measured for N#Cc1cccc(-c2ccc3c(c2)CCN(CC(=O)Nc2cc(Cl)cc(Cl)c2)C3C2CCNCC2)c1 (stereo not drawn) [Example 20] , tested on MCH receptor (Homo sapiens, UniProt Q99705)?
## Result 26

## Task Could you share what Ki was measured for N#Cc1cccc(-c2ccc3c(c2)CCN(CC(=O)Nc2cc(Cl)cc(Cl)c2)C3C2CCN(C3CCC3)CC2)c1 (stereo not drawn) [Example 29] , tested on MCH receptor (Homo sapiens, UniProt Q99705)?
## Result 15
